Test system: WaGa
Assay: qHTS assay to identify novel small-molecules to repurpose for Merkel cell carcinoma treatment (AID 1296009); further: nearly all actives have a fitted effect of over 60% in size; further: potency means the concentration at half of the fitted maximal effect
Conditions: MCC and control cell lines, CellTiter-Glo viability, 72 h; series mostly up to 46 µM
Results filed as inconclusive are left out. Calls of active or inactive are those of the source. The call rests on the fitted dose curve; in most records, active means well fitted inhibition curve with a large enough effect; inconclusive means small, poorly fitted or top-dose-only effect; inactive means flat fitted curve, though single readings scatter.
Reported Endpoint: Potency

Record excerpt, results attached:
[
  {
    "Compound": "CC(C)(C)OC(=O)Nc1ccc(-c2cc(C(=O)NCCCCCCC(=O)NO)no2)cc1",
    "Result": "3.32 µM (active)"
  },
  {
    "Compound": "Cc1[nH]c2ccccc2c1CCNCc1ccc(C=CC(=O)NO)cc1",
    "Result": "0.059 µM (active)"
  },
  {
    "Compound": "COc1cc2c(Oc3ccc4[nH]c(C)cc4c3F)ncnc2cc1OCCCN1CCCC1",
    "Result": "inactive"
  },
  {
    "Compound": "COc1cc2nccc(Oc3ccc(NC(=O)C4(C(=O)Nc5ccc(F)cc5)CC4)cc3)c2cc1OC",
    "Result": "2.09 µM (active)"
  },
  {
    "Compound": "NC(=O)c1cccc2cn(-c3ccc([C@@H]4CCCNC4)cc3)nc12",
    "Result": "10.5 µM (active)"
  }
]

Form field Potency, entry COc1cccc(Nc2c(C(N)=O)cnc3c(C)cc(S(=O)(=O)c4cccc(C(=O)N(C)C)c4)cc23)c1 : inactive

Form field Potency, entry CC1COC2(CCN(c3nc(=O)c4cc(C(F)(F)F)cc([N+](=O)[O-])c4s3)CC2)O1 (centres undefined) : inactive

###

Test: qHTS to identify inhibitors of the type 1 interferon - major histocompatibility complex class I in skeletal muscle: primary screen against the NCATS Mechanism Interrogation Plate v5.0 (MIPE) Libary (AID 1347411); further: nearly all actives have a fitted effect of over 65% in size
Conditions: iHSKM cells + IFN-b, HiBiT-tagged MHC-I luminescence, 24 h; series mostly up to 45.8 µM
Results filed as inconclusive are left out. Active and inactive are the calls of the source. Calls follow the shape of the dose curve; as a rule, active = well fitted inhibition curve with a large enough effect; inconclusive = small, poorly fitted or top-dose-only effect; inactive = no such curve, though single readings can be large or run the other way.
Output constraint: value belongs to YES for active, NO for inactive

Sample answers from the record:
[
  {
    "Molecule": "COCCOc1ccc2c(c1)ncn2-c1ccc2cccc(N3CCC(N)CC3)c2n1",
    "Assigned Class": "YES"
  },
  {
    "Molecule": "C[C@@H]1CN(CC(=O)Nc2ccc3c(c2)Cc2cccc(-c4cc(=O)cc(N5CCOCC5)o4)c2S3)C[C@H](C)O1",
    "Assigned Class": "NO"
  },
  {
    "Molecule": "O=c1[nH]c(=O)n(C2CCCO2)cc1F (stereo not given)",
    "Assigned Class": "NO"
  },
  {
    "Molecule": "Cc1nc2ccc(CN(C)c3ccc(C(=O)N[C@@H](CCC(=O)O)C(=O)O)s3)cc2c(=O)[nH]1",
    "Assigned Class": "NO"
  }
]

Turning now to a further molecule:
QUERY: How was Cc1c(Cn2c(C)nc3c(C(=O)O)cc(N4CCOCC4)cc32)cccc1C(F)(F)F classified in this test?
RESULT: NO

###

The entries below are paired with their reported Potency.
Assay: qHTS of pediatric cancer cell lines to identify multiple opportunities for drug repurposing: Primary screen for SK-N-MC cells (AID 1347093); further: potency means the concentration at half of the fitted maximal effect
Conditions: SK-N-MC viability, CellTiter-Glo luminescence, 48 h; series mostly up to 46 µM
Results filed as inconclusive are left out. Calls of active or inactive are those of the source. The call rests on the fitted dose curve; in most records, active means well fitted cell-killing curve with a large enough effect; inconclusive means small, poorly fitted or top-dose-only effect; inactive means no such curve, though single readings can be large or run the other way.

Record excerpt, results attached:
[
  {
    "Smiles Notation": "Cc1cc(Nc2cc(N3CCN(C)CC3)nc(Sc3ccc(NC(=O)C4CC4)cc3)n2)n[nH]1",
    "Potency": "0.418 µM (active)"
  },
  {
    "Smiles Notation": "COc1cc(OC2CCN(C)CC2)ccc1Nc1ncc2c(n1)n(C1CCCC1)c(=O)n2C",
    "Potency": "3.32 µM (active)"
  },
  {
    "Smiles Notation": "O=C(C=Cc1cccc(S(=O)(=O)Nc2ccccc2)c1)NO",
    "Potency": "1.21 µM (active)"
  },
  {
    "Smiles Notation": "NC1(Cc2ccc(Cl)cc2)CCN(c2ncnc3[nH]ccc23)CC1",
    "Potency": "3.32 µM (active)"
  }
]

Now, please, on to the next compound.
Form field Potency, entry CC(=O)OCCN1C(=O)c2c(C)nc3ccc(S(=O)(=O)N4CCOCC4)cc3c2C1=O : 20.9 µM (active)
